Recorded MIC by entry
Test system: Klebsiella pneumoniae KPN+19-15
Type: cell-based
Conditions: Klebsiella pneumoniae KPN 19-15
Bridge positions count the residues as written; N and C are the ends. Square brackets hold non-standard residues; d marks the D form. Peptide text beside a SMILES is read from it. * marks the point of attachment. Heptanoyl(6-Me) = CC(C)CCCCC(=O)*; X1 = CC[C@H](C)CCCCC(=O)*; Octanoyl = CCCCCCCC(=O)*; dDap = NC[C@@H](N)C(=O)O; Dab = NCC[C@H](N)C(=O)O; Dap = NC[C@H](N)C(=O)O

Previously resolved entries follow.
COMPOUND: CCCCCCCC(=O)N[C@@H](CCN)C(=O)N[C@H](C(=O)N[C@H](CN)C(=O)N[C@H]1CCNC(=O)[C@H]([C@@H](C)O)NC(=O)[C@H](CCN)NC(=O)[C@H](CCN)NC(=O)[C@H](CC(C)C)NC(=O)[C@@H](Cc2ccccc2)NC(=O)[C@H](CCN)NC1=O)[C@@H](C)O [Compound 33] (Octanoyl-[Dab]T[dDap][Dab][Dab][dF]L[Dab][Dab]T; lactam 4-C)
MIC: 0.03 µg/mL

COMPOUND: CC(C)CCCCC(=O)N[C@@H](CCN)C(=O)N[C@H](C(=O)N[C@H](CN)C(=O)N[C@H]1CCNC(=O)[C@H]([C@@H](C)O)NC(=O)[C@H](CCN)NC(=O)[C@H](CCN)NC(=O)[C@H]([C@@H](C)O)NC(=O)[C@@H](Cc2ccccc2)NC(=O)[C@H](CCN)NC1=O)[C@@H](C)O [Compound 2] ({Heptanoyl(6-Me)}-[Dab]T[dDap][Dab][Dab][dF]T[Dab][Dab]T; lactam 4-C)
MIC: ≤0.03 µg/mL

Which measured MIC belongs to CC[C@H](C)CCCCC(=O)N[C@@H](CCN)C(=O)N[C@H](C(=O)N[C@H](CO)C(=O)N[C@H]1CCNC(=O)[C@H]([C@@H](C)O)NC(=O)[C@H](CCN)NC(=O)[C@H](CCN)NC(=O)[C@H]([C@@H](C)O)NC(=O)[C@@H](Cc2ccccc2)NC(=O)[C@H](CN)NC1=O)[C@@H](C)O [Compound 61] (X1-[Dab]T[dS][Dab][Dap][dF]T[Dab][Dab]T; lactam 4-C) , tested on Klebsiella pneumoniae KPN+19-15? 0.5 µg/mL

###

Test system: Pseudomonas aeruginosa ATCC 27853
Assay type: cell-based
Conditions: ATCC 27853
Protocol: The minimal inhibitory concentration (MIC) was determined by the broth microdilution method according to the recommended procedures of the Clinical and Laboratory Standards Institute (CLSI). An appropriate amount of the cyclic lipopeptide compounds prepared in Examples 1-120 and the reference standards were weighed and dissolved in sterile pure water. […]
Bridge positions count the residues as written; N and C are the ends. Square brackets hold non-standard residues; d marks the D form. Peptide text beside a SMILES is read from it. * marks the point of attachment. Heptanoyl = CCCCCCC(=O)*; dDap = NC[C@@H](N)C(=O)O; Dab = NCC[C@H](N)C(=O)O
MEASUREMENT TYPE: MIC (µg/mL)
Your answer should be a plain number; it is taken to be in µg/mL.

Could you share which MIC value was measured for CCCCCCC(=O)N[C@@H](CCN)C(=O)N[C@H](C(=O)N[C@H](CN)C(=O)N[C@H]1CCNC(=O)[C@H]([C@@H](C)O)NC(=O)[C@H](CCN)NC(=O)[C@H](CCN)NC(=O)[C@H](CC(C)C)NC(=O)[C@@H](Cc2ccccc2)NC(=O)[C@H](CCN)NC1=O)[C@@H](C)O [Compound 34] (Heptanoyl-[Dab]T[dDap][Dab][Dab][dF]L[Dab][Dab]T; lactam 4-C) ? 0.06
